# % of CAG foci positive nuclei (Vehicle) listing for each entry below
Tested on: CAG foci in primary DM1 patient myoblasts
Assay: Single-cut screening: CAG foci staining
Type: cell-based, human
Details: single sgRNA, vehicle
// note: answer is a bare numeric in %

Q: Kindly indicate its recorded % of CAG foci positive nuclei (Vehicle). Item: cgcggacccggcccctccctcc (CGCGGACCCGGCCCCTCCCTCC; guide RNA; chemistry not fully specified) [SluU53]
A: 1.44

Q: Give % of CAG foci positive nuclei (Vehicle) for the following substance: SluD101: downstream SluCas9 sgRNA, presumably SEQ ID NO 167; sequence not in the shown tables (guide AGTCCAGAGCTTTGGGCAGATG; listed as DNA, chemistry not fully specified)
A: 2.09

Next:
Q: Entry CCGGGCCCGCCCCCTAGCggcc (guide RNA; as printed in the source, key not given here) [SluU37] needs its % of CAG foci positive nuclei (Vehicle) filled in; supply it.
A: 0.72

* * *

Test system: CUG foci in primary DM1 patient myoblasts
Test: Dual-cut screening: FISH staining of CUG RNA foci
Assay type: cell-based, human
Conditions: sgRNA pair; primary DM1 patient myoblasts; 3 μM DNA-PKi Compound 6 for 48 hours
Attribute: % of CUG foci free nuclei (DNA-PKi)
Express your answer in %, writing the number without its unit.

// worked examples, % of CUG foci free nuclei (DNA-PKi) included
Q: Give the reported % of CUG foci free nuclei (DNA-PKi) for this substance. SluU08 + SluD68 (guide 1 GCCCCGTTGGAAGACTGAGTGC; guide 2 CCTGTAGCCTGTCAGCGAGTCG; guide RNA; listed as DNA, chemistry not fully specified)
A: 88.24

Q: Identify measured % of CUG foci free nuclei (DNA-PKi) corresponding to SluU59 + SluD06 (guide 1 CGCGGCCGGCGAACGGGGCTCG; guide 2 CCAGGCTGAGGCCCTGACGTGG; guide RNA; listed as DNA, chemistry not fully specified)
A: 87.47

Next:
Q: Output measured % of CUG foci free nuclei (DNA-PKi) for this item: SluU64 + SluD56 (guide 1 GGGCTCGAAGGGTCCTTGTAGC; guide 2 CCAGCCGGCTCCGCCCGCTTCG; guide RNA; listed as DNA, chemistry not fully specified)
A: 87.6

Q: Consider the substance SluU06 + SluD34 (guide 1 TGTCTTCGACTCCGGGGCCCCG; guide 2 CGCGCCAGACGCTCCCCAGAGC; guide RNA; listed as DNA, chemistry not fully specified) . State its measured % of CUG foci free nuclei (DNA-PKi).
A: 90.66

Q: Give the value of % of CUG foci free nuclei (DNA-PKi) reported for the following: SluU63 + SluD32 (guide 1 GGGGCTCGAAGGGTCCTTGTAG; guide 2 CTTGTGCATGACGCCCTGCTCT; guide RNA; listed as DNA, chemistry not fully specified)
A: 89.04

* * *

Tested on: CUG foci in primary DM1 patient myoblasts
Assay: Dual-cut screening: FISH staining of CUG RNA foci
Format: cell-based, human
Conditions: sgRNA pair; primary DM1 patient myoblasts; vehicle (DMSO)
% of CUG foci free nuclei (Vehicle) values for the substances below.
// note: answer is a bare numeric in %

Q: State its % of CUG foci free nuclei (Vehicle): SluU06 + SluD100 (guide 1 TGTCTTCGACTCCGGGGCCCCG; guide 2 GTCCAGAGCTTTGGGCAGATGG; guide RNA; listed as DNA, chemistry not fully specified)
A: 64.95

Q: Input SluU10 + SluD100 (guide 1 CCCGTTGGAAGACTGAGTGCCC; guide 2 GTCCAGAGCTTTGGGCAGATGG; guide RNA; listed as DNA, chemistry not fully specified) , output reported % of CUG foci free nuclei (Vehicle).
A: 67.81

Let us move to another entry and its % of CUG foci free nuclei (Vehicle).
Q: Retrieve % of CUG foci free nuclei (Vehicle) measured for SluU21 + SluD14 (guide 1 GCTCGGAGCGGTTGTGAACTGG; guide 2 ATGGGCAAACTGCAGGCCTGGG; guide RNA; listed as DNA, chemistry not fully specified) and print it.
A: 61.25
